experiment: Cytotoxicity evaluation on HCT-116 cell line (SRB); type: cell-based; settings: human, HCT-116 colon cancer cells, HCT-116 cells, 72 hours treatment, read-out: Anti-HCT116 CC50
For each of the compounds below, state its log10 CC50 at 72 h.
Log scale reminder: CC50 at 72 h in µM, then log10 taken.

Consider the compound shown here: CCCCCCCCCCCCC#CC(O)c1ccccc1 (stereo not drawn) What is its recorded log10 CC50 at 72 h?
1.70

Consider the compound shown here: C#CC(O)C#CCC(O)CCCCCCCCCC (stereo not drawn) What is its recorded log10 CC50 at 72 h?
0.30

Consider the compound shown here: CCCCCCCCCCCC(O)C#CCO (racemic) What is its recorded log10 CC50 at 72 h?
1.78

Consider the compound shown here: CCCCCCCCCCCC(O)C#CC(O)C(CC)CC (stereo not drawn) What is its recorded log10 CC50 at 72 h?
1.30

Consider the compound shown here: C=C=CC(O)C#CCC(O)CCCCCCCCCC (stereo not drawn) What is its recorded log10 CC50 at 72 h?
1.08

Consider the compound shown here: CCCCCCCCCCCCC#CC(O)C(C)(C)C (stereo not drawn) What is its recorded log10 CC50 at 72 h?
1.78

Consider the compound shown here: C=CC(O)C#CCCCCCCCCCCCC (stereo not drawn) What is its recorded log10 CC50 at 72 h?
-0.70

Consider the compound shown here: CCCCCCCCCCCCC#CC(O)C(CC)CC (stereo not drawn) What is its recorded log10 CC50 at 72 h?
2.10

Consider the compound shown here: CCCCCCCCCCCC(O)C#CC(O)C(C)(C)C (stereo not drawn) What is its recorded log10 CC50 at 72 h?
1.30

Consider the compound shown here: CCCCCCCCCCCCC#CC(O)C1CCCCC1 (stereo not drawn) What is its recorded log10 CC50 at 72 h?
1.78

Consider the compound shown here: C=CC(O)C#CCC(O)CCCCCCCCCC (stereo not drawn) What is its recorded log10 CC50 at 72 h?
0.30

Consider the compound shown here: CCCCCCCCCCCCC#CC(O)C1CC1 (stereo not drawn) What is its recorded log10 CC50 at 72 h?
1.78

Consider the compound shown here: CCCCCCCCCCCC(O)C#CC(O)C1CCCC1 (stereo not drawn) What is its recorded log10 CC50 at 72 h?
1.30

Consider the compound shown here: CCCCCCCCCCCCC#CC(O)CC (stereo not drawn) What is its recorded log10 CC50 at 72 h?
1.08

Consider the compound shown here: CCCCCCCCCCCC(O)C#CC(O)C1CCCCC1 (stereo not drawn) What is its recorded log10 CC50 at 72 h?
1.70

====

experiment: Cytotoxicity evaluation on Vero cell line (MTT); assay type: cell-based; details: monkey, Vero cells, read-out: Anti-VERO CC50
readoutName: CC50 at 72 h (µM)
Quick note: give the figure in µM, leave out the unit.

Consider the compound shown here: CCCCCCCCCCCCC#CCO [Comparative example A, reference compound] What is its recorded CC50 at 72 h?
187

====

For each of the compounds below, state its CC50 at 72 h.
Experiment: Cytotoxicity evaluation on Vero cell line (MTT)
Type: cell-based
Settings: African green monkey, Vero cells, read-out: Anti-VERO CC50
Protocol: The biological activity of the compounds of the present invention were evaluated. The activity against mycobacteria (Mtb) was assessed by minimum inhibitory concentration values (MIC, µM) determination. […] Cytotoxicity evaluation of the tested molecules by MTT assay was performed on the Vero cell line. […] The absorbance was measured at 570 nm with a microplate spectrophotometer (BIOTEK Eon). […]
Quick note: give the figure in µM, leave out the unit.

Consider the compound shown here: C=C=CC(O)C#CC(O)CCCCCCCCCCC (stereo not shown) What is its recorded CC50 at 72 h?
8

Consider the compound shown here: CCCCCCCCCCCC(O)C#CCO (racemic) What is its recorded CC50 at 72 h?
89

Consider the compound shown here: C=CC(O)C#CCC(O)CCCCCCCCCC (stereo not shown) What is its recorded CC50 at 72 h?
12.5

Consider the compound shown here: C=CC(O)C#CC(O)CCCCCCCCCCC (stereo not shown) What is its recorded CC50 at 72 h?
7.6

Consider the compound shown here: CCCCCCCCCCCCC#CC(O)C1CC1 (stereo not shown) What is its recorded CC50 at 72 h?
158

Consider the compound shown here: CCCCCCCCCCC(O)CC#CC(O)c1ccccc1 (stereo not shown) What is its recorded CC50 at 72 h?
75

Consider the compound shown here: C#CC(O)C#CCCCCCCCCCCCC (stereo not shown) What is its recorded CC50 at 72 h?
0.8

Consider the compound shown here: CCCCCCCCCCCC(O)C#CC(O)c1ccccc1 (stereo not shown) What is its recorded CC50 at 72 h?
46.5

Consider the compound shown here: C#CC(O)C#CCC(O)CCCCCCCCCC (stereo not shown) What is its recorded CC50 at 72 h?
174

Consider the compound shown here: CCCCCCCCCCCC(O)C#CC(O)CC (stereo not shown) What is its recorded CC50 at 72 h?
43.2

Consider the compound shown here: C=CC(O)C#CCCCCCCCCCCCC (stereo not shown) What is its recorded CC50 at 72 h?
1

Consider the compound shown here: CCCCCCCCCCC(O)CC#CC(O)CC (stereo not shown) What is its recorded CC50 at 72 h?
75
